# System: A549/ATCC NSCLC
# assay.procedure: NCI-60 one-dose screen, 48 h
# measurement.parameters: 10 µM unless noted
This is part of a sample that, as a whole, favours compounds with a hit. Of some 83,000 tested, about 20% had one in any assay. Activity calls are given as the source filed them. Rule for the calls: active = growth percent below 10; inactive = the rest.
Classes to choose from: active, inactive

Study these solved cases before continuing.
Cc1cc(NCCN(C(C)C)C(C)C)nc(/N=C(\N)Nc2ccc(Cl)c(C(F)(F)F)c2)n1    active
Nc1nc(Cl)cc(NCCCCNc2cc(Cl)nc(N)n2)n1    inactive
Cc1cn(C2CC(N=[N+]=[N-])C(COP(=O)(O)OP(=O)(O)OP(=O)(O)O)O2)c(=O)[nH]c1=O (stereo unspecified)    inactive
COc1cc(NC(C)CCCN2C(=O)c3ccccc3C2=O)c2ncccc2c1OC (stereo unspecified)    inactive
CCCc1nn2c(CCC(=O)c3nc4ccc([N+](=O)[O-])cc4[nH]3)nnc2s1    inactive

Problem: Recorded test call requested for COC(=O)c1ccc(NC(N)=NCC(C)(C)COc2ccc(C(F)(F)F)cc2)nc1
Solution: inactive

Problem: What is the recorded call for this compound in the test? Cc1ccc(NC(=O)CN2CCOCC2)cc1Cl
Solution: inactive

Problem: // param item: CCOC(=O)NNc1nncc2ccccc12 ; yields the recorded call
Solution: inactive

Problem: Entry CC(=O)c1cc2c(N)c(C(=O)Nc3cccc(Cl)c3)sc2nc1C : call = ?
Solution: inactive

Problem: Query: recorded result category for Cc1ccc2c(C3C(C#N)=C(N)Oc4cc5ccccc5cc43)cc(=O)oc2c1 (stereo unspecified) in this test
Solution: inactive

---

# Tested on: IGROV1 ovarian
# assay.procedure: NCI-60 one-dose screen, 48 h (100 = growth as untreated, 0 = no growth, -100 = all killed)
# measurement.parameters: 10 µM unless noted
The panel holds about 83,000 compounds, 20% with a hit somewhere; the sample as a whole holds those more often.
readout.kind: growth (%)
Kindly provide the numeric value in % only, without the unit symbol.

CC(=S)Nc1ccccc1    89.8
C=C1C(=O)O[C@H]2[C@H]1CC/C(COC(=O)c1ccccc1)=C\CC[C@@]1(C)O[C@@H]21    -24.9
C#C[C@H](O)/C=C/CCCCCCC#C[C@H](O)CC[C@@H](O)C#CCCCCCC/C=C/[C@@H](O)C#C    -37.6
CCOC(=O)c1cnc2c(OC)ccc(OC)c2c1Cl    117
CCCCCCCCCCCCCCCCNc1ccccc1    91.6
COc1cc(NS(=O)(=O)c2ccc(N)cc2)ncn1    118
COc1ccc(-c2nn(-c3ccc(NC(=O)Nc4ccc(Cl)c(C(F)(F)F)c4)cc3)cc2-c2ccncc2)cc1Cl    24.8
O=C(Nc1ccc(-n2cc(-c3ccncc3)c(-c3ccc(O)c(Cl)c3)n2)cc1)c1ccc(Cl)c(Cl)c1    61.5

Alright, here's another molecule for you.
Field growth (entry COc1ccc(-c2nnc(SCC(=O)Nc3ccc(C(=O)/C=C/c4ccc(Cl)cc4)cc3)o2)cc1OC ) reads 70.4

---

# Tested on: HS 578T breast
# assay.procedure: NCI-60 one-dose screen, 48 h (100 = growth as untreated, 0 = no growth, -100 = all killed)
# measurement.parameters: 10 µM unless noted
About 83,000 compounds went through this panel and 20% of them were active in at least one assay; those are over-represented in the sample as a whole.
# label = yes if growth >= 90% else no

Examples from the recorded data:
O=C(Nc1ccccc1F)Nc1ccccc1Cl    yes
CN(C)C(=O)Nc1nc2cc(Cl)c(Cl)cc2[nH]1    no
CCC1S/C(=N\N=C(/C)c2cc3ccccc3o2)N(c2ccccc2)C1=O (stereo unspecified)    yes

Problem: Kindly determine if growth recorded for Cc1nssc1=S is above or exactly 90%.
Solution: yes

Problem: API: above_or_equal(metric=growth, cutoff=90%) for item N#Cc1c(N)nc2c(c1N)C(c1ccc(Cl)cc1)C1=C(CCCC1=O)N2c1sc2c(c1C#N)CCCC2 (stereo unspecified)
Solution: no

Problem: Reported growth reaches at least 90% for COc1cc(NC(=O)c2cc(OC)c3ccn(C)c3c2)cc2c1C[C@]1(C)CC[C@@H](O)C(C)(C)[C@H]1O2 ?
Solution: no

Problem: Does the molecule COc1cc(C(=O)N2CCN(C(=O)c3cc(OC)c(OCc4ccccc4)cc3N)CC2)c(N)cc1OCc1ccccc1 have recorded growth that is 90% or more?
Solution: yes

Problem: Has Cc1nc(-c2ccc(Cl)cc2)ccc1NC(=O)Nc1cccc(C(F)(F)F)c1 a recorded growth greater than or equal to 90%?
Solution: yes

Problem: Textbook exercise: given the entry C[C@@H]1CC2C3C[C@H](F)C4=CC(=O)C=C[C@]4(C)[C@@]3(F)[C@@H](O)C[C@]2(C)[C@@]1(O)C(=O)CO (stereo partly specified) , state whether its growth is greater than or equal to 90%.
Solution: yes

Problem: Kindly determine if growth recorded for COc1ccc2c(c1)C(=O)/C(=C/c1cccc(OCC(=O)c3ccccc3)c1)O2 is above or exactly 90%.
Solution: no

Problem: Dear colleague, could you confirm whether COc1cc(NC(C)CCCN2C(=O)c3ccccc3C2=O)c2nccc(C)c2c1OC (stereo unspecified) has growth at or above 90%?
Solution: yes

Problem: Hi team, for COc1cc(NS(C)(=O)=O)ccc1Cc1c2ccccc2nc2ccccc12 , is the recorded growth at or above 90%?
Solution: no

Problem: Exam item: decide whether the reported growth for COc1ccc2c(c1)nnc1c3cccnc3[nH]c21 is at least 90%.
Solution: no

Problem: Test whether the molecule Cc1ccn2cc(Cc3cc(=O)oc4c3ccc3ccccc34)c(=O)nc2c1 records growth of 90% or higher.
Solution: yes

Problem: Reported growth at or above 90%? COc1ccc(C(=O)NC(=O)Nc2ccc3c(c2)NC(=O)/C3=C\c2[nH]c(C)c(CCC(=O)O)c2C)c(F)c1
Solution: no

Problem: Please tell me: is the molecule COC(=O)c1ccc2c(c1)Oc1ccc(Cl)cc1-c1cc(C)nn1-2 at or over 90% in terms of growth?
Solution: no

---

# Test system: RXF 393 renal
# assay.procedure: NCI-60 one-dose screen, 48 h
# measurement.parameters: 10 µM unless noted
This is part of a sample that, as a whole, favours compounds with a hit. Of some 83,000 tested, about 20% had one in any assay. Calls of active or inactive are those of the source. The calls were made as follows: active = growth percent below 10; inactive = the rest.
API: response.call in active, inactive

C[C@H]1C=C(C[C@@H](O)CC#CC#CCCCCC[C@@H](O)[C@H]2CCC(=O)O2)C(=O)O1    inactive
CCOC(=O)C1CSC(C)(C(=O)OCC)N1 (stereo not given)    inactive
CC/C(=C(\CC)c1ccc(OCCN(CC)CC)cc1)c1ccc(OCCN(CC)CC)cc1    active
Nc1nc(Cl)c2c(C(F)(F)F)cn(CC3CCNCC3)c2n1    inactive

Problem: # outcome recorded in this test, key = Nc1nccc2c1ccn2-c1ccc(NC(=O)c2ccc(N3CCOCC3)c(C(F)(F)F)c2)cc1
Solution: active

---

# Tested on: A498 renal
# assay.procedure: NCI-60 one-dose screen, 48 h (100 = growth as untreated, 0 = no growth, -100 = all killed)
# measurement.parameters: 10 µM unless noted
Compounds without any hit were thinned out: in the full panel of roughly 83,000, 20% have a hit.
readout.kind: growth (%)
Value expressed in %; do not type the unit.

Recorded results for 3 compounds are shown here.
Nc1ncnc2c1ccn2-c1cccc(NC(=O)c2cccc(C(F)(F)F)c2)c1    82.9
CN1CCN(CC(O)COc2c(Br)c(Br)c(Br)c3c2OC(C)(C)C3)CC1 (stereo not given)    58.1
COc1cc(Nc2ncccc2C(=O)Nc2nc3ccc(F)cc3s2)cc(OC)c1OC    62.2

Query COc1cc(/C=C/C(=O)c2c(C)[n+]([O-])c3ccccc3[n+]2[O-])ccc1O on A498 renal; growth returned: 101

Measured growth for this entry COc1ccc2c(c1)nnc1c3cccnc3[nH]c21 on A498 renal: 40.3

growth of O=C1CN(CCN2CC(=O)NC(=O)C2)CC(=O)N1 , assay on A498 renal, is 103

Known value: A498 renal growth of the compound C/C(=N/O)c1ccc(NC(=O)Cn2nc(-c3ccc(Cl)cc3)nc2N)cc1 equals 103

Summary: Cc1nccc2c3ccc(OCc4cn(Cc5ccc(Br)cc5)nn4)cc3n(CCCc3ccccc3)c12 , A498 renal, growth = 91

Kindly note: A498 renal, Cn1c(I)c(C#C[Si](C)(C)C)c(=O)[nH]c1=O , growth value reported: 130

Tested on A498 renal, the item COc1ccc2c(c1)OC(N(C(C)=O)C(C)=O)=C(C#N)C2c1ccc(F)cc1 (stereo not given) showed growth equal to 12.8

---

# System: SF-295 CNS
# assay.procedure: NCI-60 one-dose screen, 48 h (100 = growth as untreated, 0 = no growth, -100 = all killed)
# measurement.parameters: 10 µM unless noted
Compounds without any hit were thinned out: in the full panel of roughly 83,000, 20% have a hit.
The entries below come with measured growth values attached.
Write the answer as a number in %, unit excluded.

Some compounds with recorded growth:
O=C(Nc1cccc([N+](=O)[O-])c1)Nc1cccc([N+](=O)[O-])c1    34.6
O=C1CCC(c2c(O)cc(O)c3c(=O)c(O)c(-c4ccc(O)c(O)c4)oc23)N1 (stereo unspecified)    101

Entry CCC1CN2C(=N1)c1ccccc1-c1cc(Cl)ccc12 (stereo unspecified) ; assay system SF-295 CNS; growth recorded at 12

Result for CCN(CC)CCNCC(O)Cc1ccc(OC)cc1 (stereo unspecified) , tested on SF-295 CNS, growth: 104
